pKi: −log10 of the molar value.
Listed below are compounds with pKi for Matrix metalloproteinase-9 (Homo sapiens, UniProt P14780), each taken from published literature.

compound	system	pKi
CC(C)(C)OC(=O)[C@H](Cc1ccccc1)NC(=O)[C@H](CCCc1ccccc1)[C@@](C)(O)C(=O)NO	Matrix metalloproteinase-9 (Homo sapiens, UniProt P14780)	7.47
CNC(=O)[C@@H]1CCC(=O)OCCNC(=O)CC[C@H](C(=O)O)N[C@@H](CCc2ccccc2)C(=O)N1	Matrix metalloproteinase-9 (Homo sapiens, UniProt P14780)	5.24
CNC(=O)[C@H](CCCNC(=O)OC(C)(C)C)NC(=O)[C@H](CCCc1ccccc1)[C@@](C)(O)C(=O)NO	Matrix metalloproteinase-9 (Homo sapiens, UniProt P14780)	8.70
CC(C)C[C@H](CC(=O)NO)C(=O)N[C@@H](Cc1c[nH]c2ccccc12)C(=O)NCCNC(=O)OCc1ccccc1	Matrix metalloproteinase-9 (Homo sapiens, UniProt P14780)	8.96
CC[C@@H]([C@@H](CC(C)C)C(=O)N[C@H](C(=O)Nc1nccs1)C(C)(C)C)N(O)C=O	Matrix metalloproteinase-9 (Homo sapiens, UniProt P14780)	7.55
CNC(=O)[C@@H]1CCCN(C(=O)OC(C)(C)C)CCCCO[C@H](C(=O)NO)[C@@H](CCCc2ccccc2)C(=O)N1	Matrix metalloproteinase-9 (Homo sapiens, UniProt P14780)	7.72
CCCCCCCC[C@H](CC(=O)NO)C(=O)N[C@@H](Cc1c[nH]c2ccccc12)C(=O)NC	Matrix metalloproteinase-9 (Homo sapiens, UniProt P14780)	9.20
CNC(=O)[C@H](Cc1ccccc1)NC(=O)[C@@H](CC(C)C)S[C@H]1CNC[C@H]1S (mixture of isomers)	Matrix metalloproteinase-9 (Homo sapiens, UniProt P14780)	8.28
CC[C@@H]([C@@H](CC(C)C)C(=O)N[C@H](C(=O)Nc1ccccn1)C(C)(C)C)N(O)C=O	Matrix metalloproteinase-9 (Homo sapiens, UniProt P14780)	7.05
CS(=O)(=O)N1C[C@@H](NS(=O)(=O)c2ccc(-c3ccccc3)cc2)C[C@@H]1C(=O)NO	Matrix metalloproteinase-9 (Homo sapiens, UniProt P14780)	5.41
CNC(=O)[C@@H](Cc1cccc2cccnc12)NC(=O)[C@@H](CC(=O)NO)CC(C)C	Matrix metalloproteinase-9 (Homo sapiens, UniProt P14780)	8.82
CNC(=O)[C@@H]1Cc2ccc(cc2)OCCC[C@H](C(=O)NO)[C@@H](CC(C)C)C(=O)N1	Matrix metalloproteinase-9 (Homo sapiens, UniProt P14780)	8.74
